Target: human adenosine A2A receptor (Homo sapiens)
Construct: expressed in transfected cells; host or cells: CHO-K1 cells with a cAMP inducible beta-galactosidase reporter gene
Experiment: Adenosine A2A Receptor Functional Assay (A2AGAL2)
Type: cell-based
Conditions: ratio of A1Gal2 to A2AGal2 value
Text: Adenosine A2A Receptor Functional Assay (A2AGAL2) To initiate the functional assay, cryopreserved CHO-K1 cells overexpressing the human adenosine A2A receptor and containing a cAMP inducible beta-galactosidase reporter gene were thawed, centrifuged, DMSO containing media removed, and then seeded with fresh culture media into clear 384-well tissue culture treated plates (BD #353961) at a concentration of 10K cells/well. […]
Could you label it Y if measured A1/A2A is 100 or higher, and N otherwise?

compound=Nc1nc(-c2ccc(F)cc2)c2c(n1)-c1c(cccc1-c1ccc(OCCN3CCOCC3)cc1)C2=O assigned_category=N
compound=CC(C)CN1CCN(c2ccc(-c3cccc4c3-c3nc(N)nc(-c5ccc(F)cc5)c3C4=O)cc2)CC1 assigned_category=Y
compound=Nc1nc(-c2ccc(F)cc2)c2c(n1)-c1c(cccc1-c1cccc(F)c1)C2=O assigned_category=Y
compound=CCC(CC)N1CCN(c2ccc(-c3cccc4c3-c3nc(N)nc(-c5ccc(F)cc5)c3C4=O)cc2)CC1 assigned_category=Y
compound=Cc1cccc(-c2cccc3c2-c2nc(N)nc(-c4ccc(F)cc4)c2C3=O)c1 assigned_category=N
compound=COc1ccc(-c2cccc3c2-c2nc(N)nc(-c4ccccc4)c2C3=O)cc1 assigned_category=N
compound=CCN1CCN(c2ccc(-c3cccc4c3-c3nc(N)nc(-c5ccc(F)cc5)c3C4=O)cc2)CC1 assigned_category=N
compound=N#Cc1ccc(-c2cccc3c2-c2nc(N)nc(-c4ccc(F)cc4)c2C3=O)cc1 assigned_category=Y
compound="CCC(C)N1CCN(c2ccc(-c3cccc4c3-c3nc(N)nc(-c5ccc(F)cc5)c3C4=O)cc2)CC1 (stereo not shown)" assigned_category=Y
compound=Nc1nc(-c2ccccc2)c2c(n1)-c1c(cccc1-c1ccccc1)C2=O assigned_category=N

----------
target: human adenosine A2A receptor (Homo sapiens, UniProt P29274); experiment: Adenosine A2A Receptor Functional Assay (A2AGAL2); conditions: CHO-K1 cells overexpressing human A2A, cAMP inducible beta-galactosidase reporter, antagonist vs 15 nM NECA challenge
Sequence (P29274 whole entry): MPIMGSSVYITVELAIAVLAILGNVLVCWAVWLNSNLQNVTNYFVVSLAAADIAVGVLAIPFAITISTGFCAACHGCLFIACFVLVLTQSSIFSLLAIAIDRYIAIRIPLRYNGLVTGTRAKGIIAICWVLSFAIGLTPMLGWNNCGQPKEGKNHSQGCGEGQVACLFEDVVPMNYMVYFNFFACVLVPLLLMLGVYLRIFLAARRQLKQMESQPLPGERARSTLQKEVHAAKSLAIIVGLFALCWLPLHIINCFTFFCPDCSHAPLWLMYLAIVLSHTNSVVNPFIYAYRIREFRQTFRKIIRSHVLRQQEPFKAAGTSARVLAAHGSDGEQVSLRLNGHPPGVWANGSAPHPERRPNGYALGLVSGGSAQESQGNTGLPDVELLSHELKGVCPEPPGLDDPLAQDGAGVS
Let's look at some compounds and their measured IC50.
measure-name: IC50 (nM)

compound=CC(C)CN1CCN(c2ccc(-c3cccc4c3-c3nc(N)nc(-c5ccc(F)cc5)c3C4=O)cc2)CC1 measure_name=IC50 unit_annotation=nM assay_result=7.1
compound=Nc1nc(-c2ccc(F)cc2)c2c(n1)-c1c(cccc1-c1ccc(N3CCN(Cc4ccccc4)CC3)cc1)C2=O measure_name=IC50 unit_annotation=nM assay_result=10
compound=CCN1CCN(c2ccc(-c3cccc4c3-c3nc(N)nc(-c5ccc(F)cc5)c3C4=O)cc2)CC1 measure_name=IC50 unit_annotation=nM assay_result=10
compound="CCC(C)N1CCN(c2ccc(-c3cccc4c3-c3nc(N)nc(-c5ccc(F)cc5)c3C4=O)cc2)CC1 (stereo not shown)" measure_name=IC50 unit_annotation=nM assay_result=9.8
